# Test method notes: inhibitors of TNFa-induced NFkB p65 translocation, primary screen, imaging, HUVEC, MLSMR starter and 10KST1 sets (AID 438);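 also: compound added about 3h40 before a 20 min TNFalpha stimulation; signal is the nuclear over cytoplasmic p65 intensity ratio per well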
# Assay setup: HUVEC TNFa-induced p65 nuclear translocation; at 2 µM, stronger effect = higher value, 0% TNFa-plus-vehicle, 100% no-TNFa wells
Experimental readout: inhibition (%)
Answers are plain numbers, in %.

Observe how each entry below is paired with its result.
[[record]]
compound = "CCOc1ccccc1-n1nnnc1SCC(=O)Nc1cc2oc3ccccc3c2cc1OC"
experimental_readout = "inhibition"
reported_measurement = -2.9

[[record]]
compound = "COc1ccccc1C(=O)N1CCN(CCc2ccccc2)CC1"
experimental_readout = "inhibition"
reported_measurement = 3.2

[[record]]
compound = "CC1Cc2ccccc2N1C(=O)c1cccnc1 (stereo unspecified)"
experimental_readout = "inhibition"
reported_measurement = -1

[[record]]
compound = "O=C(O)c1cccc(NC(=O)C2C3C=CC(C3)C2C(=O)OCC(F)(F)C(F)F)c1 (stereo unspecified)"
experimental_readout = "inhibition"
reported_measurement = 8.3

[[record]]
compound = "CS(=O)(=O)Nc1ccccc1C(=O)O"
experimental_readout = "inhibition"
reported_measurement = -2.1

[[record]]
compound = "CCNS(=O)(=O)c1c(C)cc(N2CCCC2=O)cc1C"
experimental_readout = "inhibition"
reported_measurement = -8


Provide each entry's inhibition from the list below.
1. CCC(=O)N1CCc2cc(Br)cc(S(=O)(=O)N3CCCCCC3)c21
2. CCOCC(O)CS(=O)Cc1ccccc1 (stereo unspecified)
3. Cc1ccc(N(Cc2ccco2)C(=O)c2cccc(S(=O)(=O)N(C)C)c2)cc1
4. O=C(CSc1nc2ccccc2c(=O)n1CCC(=O)N1CCCCC1)NCc1ccccc1
5. CC(C)N(C(=O)COC(=O)c1ccc(O)cc1)C(C)C
6. CC(C)C(=O)Nc1cccc(NC(=O)c2cccnc2)c1
7. CCn1c(C(Cc2ccccc2)NC(=O)COC)nc2ccccc21 (stereo unspecified)

RESULT:
1: -3.9; 2: -7.4; 3: 2.1; 4: -7.5; 5: 1; 6: 7.2; 7: 13.9

Every entry's value here was drawn from PubChem BioAssay.
